Entry source: paper PMC6767236

# System Tested: mouse CB2R (Mus musculus, UniProt P47936)
# Sequence (P47936 whole entry): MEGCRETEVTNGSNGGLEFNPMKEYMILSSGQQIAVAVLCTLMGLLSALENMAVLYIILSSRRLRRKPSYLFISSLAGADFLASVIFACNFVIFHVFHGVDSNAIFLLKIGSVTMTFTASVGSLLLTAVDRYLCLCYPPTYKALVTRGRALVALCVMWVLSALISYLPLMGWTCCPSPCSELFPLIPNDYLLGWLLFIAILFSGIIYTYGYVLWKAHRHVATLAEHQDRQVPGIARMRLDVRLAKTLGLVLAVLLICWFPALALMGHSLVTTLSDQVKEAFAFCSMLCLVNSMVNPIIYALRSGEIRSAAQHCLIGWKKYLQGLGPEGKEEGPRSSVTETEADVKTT
# Measurement Description: cell-based
# Assay type: cell-based
# Design: bgal (beta-galactosidase fragment of the PathHunter system, named only in the cell line's name); host or cells: CHO-K1 (CHOK1mCB2_bgal)
# Test Settings: read-out: mouse CB2R: beta arrestin EC50
Can you tell me EC50 for the items I'm about to list?

1) Cc1nc([C@](C)(CC2CC2)NC(=O)c2cc(OCC(F)(F)F)c(C3CC3)cn2)no1; > 30000 nM

Respectfully, I request EC50 for each entry included below.
1. CC(C)(C)c1nc(N2CC[C@H](O)C2)c2nnn(Cc3nnnn3C3CC3)c2n1
2. CNC(=O)[C@@H](NC(=O)c1cc(OCC2(C)COC2)c(C2CC2)cn1)C(C)(C)C

Reply text:
26 nM
> 30000 nM

Inquiry: For the compound CCCCCCC(C)(C)c1cc(OC)c(C2=C[C@H]3CC[C@]2(CO)C3(C)C)c(OC)c1 [HU910, reference compound] , what EC50 is on record?
Reply text: 224 nM
